The reported numbers originate from ChEMBL document CHEMBL1128377.

test: Inhibition of [3H]dofetilide binding to guinea pig cardiac potassium (K+) channels.; design: species or system Cavia porcellus
MEASURED PARAMETER: log10 of IC50 (log10 of the value in nM)
Kindly note that the scale is log10 and the underlying IC50 is in nM.

Check out these entries, answers already filled in.
In [3]: df
Out[3]:
                                   compound  measured
0    CCCCCCNc1cc[n+](C)c2c(-c3ccccc3)cccc12      2.35
1  CCCCCCCC/N=c1\ccn(Cc2ccccc2)c2cc(Cl)ccc12      3.38
2    CCCCC/N=c1\ccn(Cc2ccccc2)c2cc(Cl)ccc12      3.11
3  CC(C)CCCC(C)/N=c1\ccn(Cc2ccccc2)c2cc(Cl)ccc12 (stereo unspecified)      2.24
4  CCCCCC/N=c1\ccn(Cc2ccccc2Cl)c2cc(Cl)ccc12      2.89

Briefly, log10 of IC50 measured for "CCCCCC/N=c1\ccn(Cc2ccccc2)c2ccc(OC)cc12" : 2.83

Briefly, log10 of IC50 measured for "CCCCC/N=c1\ccn(Cc2ccc(Cl)cc2)c2ccc(OC)cc12" : 3.30

Briefly, log10 of IC50 measured for "Clc1ccc(C/N=c2\ccn(Cc3ccccc3Cl)c3cc(Cl)ccc23)c(Cl)c1" : 3.38

Briefly, log10 of IC50 measured for "CCCCCC/N=c1\ccn(Cc2ccccc2)c2cc(Cl)ccc12" : 2.91

###

molecular target: Potassium voltage-gated channel subfamily A member 3 (Homo sapiens, UniProt P22001); assay: Concentration inhibiting [125I]ChTX (charybdotoxin) binding to N-type potassium channel.
Sequence (P22001 whole entry): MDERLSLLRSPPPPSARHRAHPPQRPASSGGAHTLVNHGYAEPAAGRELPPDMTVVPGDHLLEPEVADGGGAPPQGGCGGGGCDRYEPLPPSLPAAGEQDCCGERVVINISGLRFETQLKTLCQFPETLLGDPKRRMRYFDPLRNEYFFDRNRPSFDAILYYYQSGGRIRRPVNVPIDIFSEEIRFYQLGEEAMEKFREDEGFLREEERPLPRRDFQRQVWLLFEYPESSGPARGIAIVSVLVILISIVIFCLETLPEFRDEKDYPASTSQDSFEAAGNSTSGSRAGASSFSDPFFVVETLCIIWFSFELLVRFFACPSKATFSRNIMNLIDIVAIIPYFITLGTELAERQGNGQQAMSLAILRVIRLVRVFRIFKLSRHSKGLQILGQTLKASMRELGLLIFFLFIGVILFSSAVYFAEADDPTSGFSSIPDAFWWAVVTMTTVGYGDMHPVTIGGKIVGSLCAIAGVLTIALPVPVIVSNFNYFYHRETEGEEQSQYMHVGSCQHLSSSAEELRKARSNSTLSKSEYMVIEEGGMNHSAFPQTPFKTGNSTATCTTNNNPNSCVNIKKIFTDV
MEASURED PARAMETER: pIC50
Give only the number. pIC50 is defined as minus log10 of concentration in molar units.

In [3]: df
Out[3]:
                                   molecule  measured
0      CCC/N=c1\ccn(Cc2ccccc2)c2cc(Cl)ccc12      6.26
1       CCCCCC/N=c1\ccn(Cc2ccccc2)c2ccccc12      6.79
2   CCCCCCOc1cc[n+](Cc2ccccc2)c2cc(Cl)ccc12      6.08
3  CCCCCCC/N=c1\ccn(Cc2ccccc2)c2cc(Cl)ccc12      6.93
4  CCCCCC/N=c1\ccn(Cc2ccc(OC)cc2)c2cc(Cl)ccc12      7.06

Briefly, pIC50 measured for CCCCC/N=c1\ccn(C2CCc3ccccc32)c2cc(Cl)ccc12 (stereo unspecified) : 5.64

Briefly, pIC50 measured for "CCCCCCNc1cc[n+](-c2ccccc2)c2c(-c3ccccc3)cc(OC)cc12" : 6.62

Briefly, pIC50 measured for "CCCCCC/N=c1\ccn(Cc2ccccc2Cl)c2cc(Cl)ccc12" : 6.72

###

molecular target: Potassium voltage-gated channel subfamily A member 3 (Homo sapiens); test: Concentration inhibiting [125I]ChTX (charybdotoxin) binding to N-type potassium channel.
Listed molecules paired with reported pIC50
Give only the number. pIC50 is defined as minus log10 of concentration in molar units.

In [3]: df
Out[3]:
                               entry_smiles  measured
0  Clc1ccc(C/N=c2\ccn(Cc3ccccc3Cl)c3cc(Cl)ccc23)c(Cl)c1      6.26

Briefly, pIC50 measured for "CCCCCC/N=c1\ccn(Cc2ccccc2)c2ccc(OC)cc12" : 7.33

Briefly, pIC50 measured for "CCCCCC/N=c1\ccn(Cc2ccccc2)c2cc(Cl)ccc12" : 7.49

Briefly, pIC50 measured for "Clc1ccc2/c(=N/C34CC5CC(CC(C5)C3)C4)ccn(Cc3ccccc3)c2c1" : 5.93
